Quick reference: pEC50 RXFP4 of the listed items.
- target_entity: human RXFP4 (Homo sapiens, UniProt Q8TDU9)
- Construct: expressed in transfected cells; host or cells: HEK293T
- Sequence (Q8TDU9 whole entry): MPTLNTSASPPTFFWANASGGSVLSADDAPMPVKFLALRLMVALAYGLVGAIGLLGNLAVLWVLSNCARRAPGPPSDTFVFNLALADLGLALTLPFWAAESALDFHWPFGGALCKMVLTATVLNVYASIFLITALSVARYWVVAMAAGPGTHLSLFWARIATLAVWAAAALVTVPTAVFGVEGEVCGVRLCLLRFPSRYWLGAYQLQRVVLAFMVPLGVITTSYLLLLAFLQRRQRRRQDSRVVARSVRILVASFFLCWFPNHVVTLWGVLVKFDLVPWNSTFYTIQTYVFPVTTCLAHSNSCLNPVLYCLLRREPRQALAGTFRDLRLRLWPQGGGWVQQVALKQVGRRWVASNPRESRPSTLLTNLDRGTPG
- assay_overview: Receptor activation assay, CRE-controlled NanoLuc reporter
- Type: cell-based
- assay_setup: HEK293T cells cotransfected with human RXFP4 and CRE-controlled NanoLuc reporter; 1.0 μM forskolin; 37 °C, 4 h; mean ± SE, n = 3; SEM
- From the text: Figure 4 Receptor activation activities of the mature INSL5 and R3/I5 mutants towards RXFP3 and RXFP4. HEK293T cells transiently cotransfected by human RXFP3 or human RXFP4 and a CRE-controlled NanoLuc reporter were used for the activation assays. The measured data were expressed as mean ± SE (n = 3) and fitted to sigmoidal or linear curves using the software SigmaPlot 10.0. […]
No end group written: not given here.
Number only, please.

Below, 2 substances whose answers are already recorded.
substance | pEC50 RXFP4
[G(B23)A,G(B24)S]R3/I5: recombinant mature two-chain R3/I5 mutant (chain 1 RAAPYGVRLCGREFIRAVIFTCASSRW; chain 2 QDLQTLCCTDGCSMTDLSALC; not fully specified; two-chain, three disulfides; A-chain N-terminal pyroglutamate likely; possible unprinted extra residues as in m2) | 8.44
[I(B18)T]INSL5: recombinant mature two-chain INSL5 mutant (Insulin-like peptide INSL5 B … KESVRLCGLEYIRTVIYTCASSRW; Insulin-like peptide INSL5 A … QDLQTLCCTDGCSMTDLSALC; ends and bridges not checked; cysteine pairing not given here; UniProt Q9Y5Q6 23-46; Q9Y5Q6 115-135, looked up, variant I18T) | 9.31

Please look at the following substance next.
Exercise: // lookup pEC50 RXFP4 for [R(B12)L,G(B23)A,G(B24)S]R3/I5: recombinant mature two-chain R3/I5 mutant (chain 1 RAAPYGVRLCGLEFIRAVIFTCASSRW; chain 2 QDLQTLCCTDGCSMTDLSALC; disulfide (positions not given here); not fully specified; also: A-chain N-terminal pyroglutamate likely)
Key: 8.16

The reported measurements were obtained from paper PMC4939597.
